Listed here: items and their measured TGI.
# System: HCC-2998 colon
# experiment-summary: NCI tumour cell line growth inhibition, 48 h
observable: TGI (µM)

[[record]]
molecule = "Nc1ncnc2c1ncn2[C@]1(CO)C=C(CO)C(O)C1O (stereo not given in full)"
measurement_unit = "µM"
cmp = ">"
endpoint_result = 100

[[record]]
molecule = "O=[N+]([O-])c1cccc2nc3ccccc3c(NCCCn3ccnc3[N+](=O)[O-])c12"
measurement_unit = "µM"
cmp = "="
endpoint_result = 0.000515

[[record]]
molecule = "COc1ccc(NC(=O)C(=O)c2c(O)c3ccc(O)cc3oc2=O)c([N+](=O)[O-])c1"
measurement_unit = "µM"
cmp = ">"
endpoint_result = 100

[[record]]
molecule = "CCN(CC)C(=O)Cc1c(C(=O)N(CC)CC)c(=O)nc2sccn12"
measurement_unit = "µM"
cmp = ">"
endpoint_result = 100

[[record]]
molecule = "COC(=O)/C=C1\\C(=O)N(C(C)=O)c2ccc(Br)cc21"
measurement_unit = "µM"
cmp = "="
endpoint_result = 31.9

[[record]]
molecule = "C/C(=N\\NC(=S)N1CCCCC1)c1ccccn1"
measurement_unit = "µM"
cmp = "="
endpoint_result = 6.93

[[record]]
molecule = "Fc1cc2[nH]ncc2c2c3c(c(-c4cn[nH]c4C(F)(F)F)nc12)CCCC3"
measurement_unit = "µM"
cmp = "="
endpoint_result = 4.99

[[record]]
molecule = "CCOc1cc(C2SCC(=O)N2c2ccc(Oc3ccc(Cl)cc3)c(Cl)c2)ccc1O (stereo not given)"
measurement_unit = "µM"
cmp = "="
endpoint_result = 35.8

[[record]]
molecule = "O=C(O[C@@H](/C=C/c1ccccc1)P1(=O)N(Cc2ccccc2)[C@H]2CCCC[C@@H]2N1Cc1ccccc1)c1ccccc1"
measurement_unit = "µM"
cmp = "="
endpoint_result = 18.2

[[record]]
molecule = "N=C1OC(CN2CCN(c3ccccc3)CC2)CN1C(=S)Nc1ccccc1 (stereo not given)"
measurement_unit = "µM"
cmp = ">"
endpoint_result = 100

[[record]]
molecule = "Cc1nc(N)c(N2CCN(C(=O)O)CC2)c(=O)[nH]1"
measurement_unit = "µM"
cmp = ">"
endpoint_result = 100

[[record]]
molecule = "Cn1cnc([N+](=O)[O-])c1Sc1nc(N)nc2c1ncn2C1OC(CO)C(O)C1O (stereo not given)"
measurement_unit = "µM"
cmp = "="
endpoint_result = 15.3

[[record]]
molecule = "Nc1ncnc2c1sc1nc3ccccc3n12"
measurement_unit = "µM"
cmp = ">"
endpoint_result = 100

[[record]]
molecule = "C[C@@H](c1ccccc1)n1c(N)c(-c2ccccn2)c2ccc([N+](=O)[O-])cc2c1=O"
measurement_unit = "µM"
cmp = ">"
endpoint_result = 100

[[record]]
molecule = "CCN(CCCN(C)C)Cc1cc(I)cc(C)c1O"
measurement_unit = "µM"
cmp = "="
endpoint_result = 32.2

[[record]]
molecule = "CCN(CC)c1ccc(/C=N/NC(=O)CSc2nc3ccccc3c(=O)n2CCc2ccc(S(N)(=O)=O)cc2)c(O)c1"
measurement_unit = "µM"
cmp = ">"
endpoint_result = 100

[[record]]
molecule = "COC(=O)C1CCc2c1c(=O)n1c([nH]c3ccccc31)c2C#N (stereo not given)"
measurement_unit = "µM"
cmp = ">"
endpoint_result = 100

[[record]]
molecule = "COc1ccc(C2CC(c3cccc(Nc4ccnc5cc(Cl)ccc45)c3)=NN2C=O)cc1 (stereo not given)"
measurement_unit = "µM"
cmp = ">"
endpoint_result = 100

[[record]]
molecule = "N#CC12Cc3cc4c(cc3-c3cccc(c31)CCN2C(=O)c1ccccc1)OCO4 (stereo not given)"
measurement_unit = "µM"
cmp = ">"
endpoint_result = 100

[[record]]
molecule = "COP(=O)(OC)C(=O)N1N(c2ccc([N+](=O)[O-])cc2)C(=O)C(C)NC1(NNc1ccc([N+](=O)[O-])cc1)P(=O)(OC)OC (stereo not given)"
measurement_unit = "µM"
cmp = ">"
endpoint_result = 100

